test system: Plasmodium falciparum; assay: Inhibition of Plasmodium falciparum 3D7 in erythrocytes; format: functional, organism-based
pIC50: −log10 of the molar value.
readout-name: pIC50

Field pIC50 (system: Plasmodium falciparum) for entry O=P(O)(O)C(O)(Cc1ccccc1)P(=O)(O)O = 5.11

Entry CC(N)CC(O)(P(=O)(O)O)P(=O)(O)O (stereo unspecified) , Plasmodium falciparum data, pIC50 value: < 3.70

Lab note: compound CN(C)CCC(O)(P(=O)(O)O)P(=O)(O)O tested on Plasmodium falciparum; recorded pIC50 was < 3.70

Known value: Plasmodium falciparum pIC50 of the compound NCCCCC(O)(P(=O)(O)O)P(=O)(O)O equals < 3.70

// compound NCCC(O)(P(=O)(O)O)P(=O)(O)O , assay Plasmodium falciparum, pIC50 value: < 3.70

So the reported pIC50 for O=P(O)(O)C(O)(CSc1ccncc1)P(=O)(O)O , on Plasmodium falciparum, turned out to be 3.80

* * *

test system: Trypanosoma cruzi; assay: Inhibition of Trypanosoma cruzi Amastigotes was determined in γ-irradiated L6E9 myoblasts culture and fetal calf serum
readout-name: IC50

# molecule O=P(O)(O)C(O)(CSc1ccncc1)P(=O)(O)O ; its IC50 = > 200 µM

Short answer for CCCCCC(O)(P(=O)(O)O)P(=O)(O)O : IC50 was > 200 µM

Record summary for CCOP(=O)(OCC)C(Nc1ncccc1C)P(=O)(OCC)OCC : reported IC50 = > 200 µM

Form field IC50, entry O=P(O)(O)C(O)(Cc1c[nH]cn1)P(=O)(O)O : 35 µM

So for NCCCCC(O)(P(=O)(O)O)P(=O)(O)O , the logged IC50 turned out to be > 200 µM

For this molecule ( O=P(O)(O)C(O)(CCc1cccnc1)P(=O)(O)O ), measured IC50 is > 200 µM

Please fill in: IC50 reported for NCCCC(O)(P(=O)(O)O)P(=O)(O)O = 25 µM

Lookup result for CCCC(O)(P(=O)(O)O)P(=O)(O)O ; measured IC50: > 200 µM

Briefly, IC50 measured for NCCCCCC(O)(P(=O)(O)O)P(=O)(O)O : > 200 µM

response.value for O=P(O)(O)C(O)(Cc1ccccn1)P(=O)(O)O (field: IC50) = 105 µM

IC50 reading for CN(C)CCC(O)(P(=O)(O)O)P(=O)(O)O : > 200 µM

IC50 in this record for O=P(O)(O)C(O)(Cc1ccccc1)P(=O)(O)O : > 200 µM

* * *

test system: Trypanosoma cruzi; test: Inhibition of Trypanosoma cruzi Amastigotes was determined in γ-irradiated L6E9 myoblasts culture and fetal calf serum
readout-name: pIC50
Please note pIC50 is a logarithmic value: minus log10 of concentration in mol/L. Answer with that number alone.

Measured pIC50 of O=P(O)(O)C(O)(Cc1cccnc1)P(=O)(O)O [RISEDRONIC ACID] : 3.91

Lab note: measured pIC50 of NCCC(O)(P(=O)(O)O)P(=O)(O)O [PAMIDRONIC ACID] was 4.22

Field pIC50 (entry Cc1cccnc1NC(P(=O)(O)O)P(=O)(O)O ) reads 3.83

* * *

system: Plasmodium falciparum; assay: Inhibition of Plasmodium falciparum 3D7 in erythrocytes; format: functional, organism-based
pIC50: −log10 of the molar value.
I'd be grateful if you could share measured pIC50 for these entries.

// sample O=P(O)(O)C(O)(CCc1cccnc1)P(=O)(O)O , its pIC50 was < 3.70

Record O=P(O)(O)C(O)(Cc1cccnc1)P(=O)(O)O . Reported pIC50: 3.91

Briefly, pIC50 measured for CCOP(=O)(OCC)C(Nc1ncccc1C)P(=O)(OCC)OCC : < 3.70

# compound NCCCCCC(O)(P(=O)(O)O)P(=O)(O)O ; its pIC50 = < 3.70

The reported pIC50 of the compound NCCCC(O)(P(=O)(O)O)P(=O)(O)O was < 3.70

The compound listed as CCCCC(O)(P(=O)(O)O)P(=O)(O)O shows pIC50 equal to 4.25

* * *

Exercise: state measured IC50 for each of the compounds provided.
test system: Plasmodium falciparum; test: Inhibition of Plasmodium falciparum 3D7 in erythrocytes; format: functional, organism-based

Given item O=P(O)(O)C(O)(Cc1ccncc1)P(=O)(O)O , the value recorded as its IC50 is > 200 µM

// CCCC(O)(P(=O)(O)O)P(=O)(O)O : IC50 value = 130 µM

Entry O=P(O)(O)C(O)(Cc1ccccn1)P(=O)(O)O , IC50 reported as > 200 µM

* * *

Can you tell me IC50 for the items I'm about to list?
tested on: Trypanosoma cruzi; assay: Inhibition of Trypanosoma cruzi Amastigotes was determined in γ-irradiated L6E9 myoblasts culture and fetal calf serum

Noted for Nc1ccc(CC(O)(P(=O)(O)O)P(=O)(O)O)cc1 : its IC50 reads > 200 µM

Input CC(N)CC(O)(P(=O)(O)O)P(=O)(O)O (stereo not drawn) . Output IC50: > 200 µM

The value of IC50 measured for the molecule CCCCC(O)(P(=O)(O)O)P(=O)(O)O turned out to be > 200 µM

Data origin, for the record: ChEMBL document CHEMBL1134372
